Answer each item with its documented pIC50.
test system: HCT-116; test: Cytotoxicity assay (SRB), HCT-116; format: cell-based; settings: Homo sapiens, HCT-116, 72 h, HCT116 cells, 3 days, SRB; read-out: In Vitro Cellular Activity IC50 HCT116
Answers are plain numbers, as −log10 of the molar value.

• CN(C)C(=O)C1CCN(c2ccc(N/C=C3\C(=O)NC(=O)c4ccc(I)cc43)cc2)CC1 [Example 429] = 4.68
• O=C1NC(=O)c2ccccc2/C1=C/Nc1ccc(CN2CCCC2)cc1 [Example 576] = 5.20
• O=C1NCc2cc(Cl)ccc2C1=CNc1cccc(O)c1 [Example 856] = 4.91

Go through the items and report each one's pIC50.
1. CN1CCCC1c1ccc(N/C=C2\C(=O)NC(=O)c3ccc(-c4cccs4)cc32)cc1 (centres unmarked) [Example 450]
2. O=C1NC(=O)c2ccc(-c3cccc([N+](=O)[O-])c3)cc2C1=CNCc1ccc(O)c(O)c1 [Example 820]

A)
5.60
4.38

###

Answer each item with its documented IC50.
test system: LoVo; test: Cytotoxicity assay (SRB), LoVo; assay type: cell-based; details: Homo sapiens, LoVo, 72 h, LoVo cells, 3 days, SRB; read-out: In Vitro Cellular Activity IC50 LOVO
Give bare numbers, in µM.

Examples with their reported IC50 follow.
- CN(C)CCCc1ccc(N/C=C2\C(=O)NC(=O)c3ccc(Br)cc32)cc1: 23.7
- O=C1NC(=O)c2ccc(-c3cccc(C(=O)O)c3)cc2C1=CNCc1ccc(O)c(O)c1: 48
- CN(C)Cc1cccc(-c2ccc(CN/C=C3\C(=O)NC(=O)c4ccc(I)cc43)cc2O)c1: 1.4
- O=C1NC(=O)c2ccc(C=CC3CCCCC3)cc2C1=CNCc1ccc(O)c(O)c1: 6
- NS(=O)(=O)c1ccc(CNC=C2C(=O)NC(=O)c3ccc(-c4csc5ccccc45)cc32)cc1: 15.8
- CCCOc1ccc(CN/C=C2\C(=O)NC(=O)c3ccc(-c4ccoc4)cc32)cc1O: 0.94

With those in mind, consider the next molecule.
Q) # assay system LoVo: give IC50 of `CN(C)c1ccc(-c2ccc3c(c2)C(=CNCc2ccc(O)c(O)c2)C(=O)NC3=O)cc1`
A) 10.2

###

target: cyclin B/CDK1 enzyme (Homo sapiens, UniProt P06493); construct: purchased New England BioLabs; host or cells: Sf9 insect cells, recombinant baculovirus; test: CDK1 ELISA kinase assay (phospho-Rb ser 795 detection); type: biochemical; conditions: In Vitro Enzyme Assays, read-out: CDK1 IC50
Sequence (P06493 whole entry): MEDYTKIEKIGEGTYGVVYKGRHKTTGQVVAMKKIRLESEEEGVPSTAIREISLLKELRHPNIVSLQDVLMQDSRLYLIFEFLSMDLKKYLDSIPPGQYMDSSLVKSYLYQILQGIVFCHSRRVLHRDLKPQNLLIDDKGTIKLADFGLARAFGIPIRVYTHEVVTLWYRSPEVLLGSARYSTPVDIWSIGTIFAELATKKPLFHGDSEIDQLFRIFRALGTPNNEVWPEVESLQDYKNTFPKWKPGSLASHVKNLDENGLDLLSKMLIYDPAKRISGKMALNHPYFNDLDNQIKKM
Sequence (P14635 whole entry partner): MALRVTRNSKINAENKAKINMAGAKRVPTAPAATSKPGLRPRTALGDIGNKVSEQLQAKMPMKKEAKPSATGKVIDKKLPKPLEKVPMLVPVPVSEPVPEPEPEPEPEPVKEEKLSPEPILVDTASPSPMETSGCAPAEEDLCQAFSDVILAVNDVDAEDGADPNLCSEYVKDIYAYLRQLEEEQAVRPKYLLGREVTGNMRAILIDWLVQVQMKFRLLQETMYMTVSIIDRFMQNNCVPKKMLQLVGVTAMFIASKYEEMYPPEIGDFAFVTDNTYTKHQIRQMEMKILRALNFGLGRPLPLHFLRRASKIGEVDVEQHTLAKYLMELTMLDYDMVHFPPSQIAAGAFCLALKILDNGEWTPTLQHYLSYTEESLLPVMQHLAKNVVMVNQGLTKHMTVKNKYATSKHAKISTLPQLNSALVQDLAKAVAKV
Answer each item with its documented IC50.
Give bare numbers, in µM.

* COc1ccc(C#Cc2ccc3c(c2)/C(=C/Nc2ccc(N4CCN(C)CC4)cc2)C(=O)NC3=O)cc1 [Example 172] | 23.6

With those in mind, consider the next compound.
Q) State its IC50: O=C1NC(=O)c2ccc(I)cc2/C1=C/Nc1ccc(N2CCNCC2)cc1 [Example 378]
A) 20.4

###

target: cyclin E/CDK2 enzyme (Homo sapiens, UniProt P24941); construct: made in house; host or cells: Sf9 insect cells, recombinant baculovirus; test: CDK2 ELISA kinase assay (phospho-Rb ser 795 detection); assay type: biochemical; settings: In Vitro Enzyme Assays, read-out: CDK2 IC50
pIC50: −log10 of the molar value.
Answer each item with its documented pIC50.

• CCCOc1ccc(CN/C=C2\C(=O)NC(=O)c3ccc(-c4cccc(F)c4)cc32)cc1O [Example 193] = < 4.30
• C/C=C/C(=O)Nc1ccc2c(c1)/C(=C/Nc1ccc(N3CCN(C)CC3)cc1)C(=O)NC2=O [Example 384] = < 4.30
• C/C=C/C(=O)Nc1ccc(CN/C=C2\C(=O)NC(=O)c3ccc(I)cc32)cc1OC(=O)/C=C/C [Example 343] = 4.65
• CN1CCC(N2CCN(c3ccc(N/C=C4\C(=O)NC(=O)c5ccc(I)cc54)cc3)CC2)CC1 [Example 387] = < 4.30
• CN1CCN(CCCNC=C2C(=O)NC(=O)c3ccc(-n4cccc4)cc32)CC1 [Example 279] = < 4.30
• O=C1NC(=O)c2ccc(Br)cc2/C1=C/Nc1ccc(CN2CCCC2)cc1 [Example 59] = 4.60
• CN1CCN(c2ccc(N/C=C3\C(=O)NC(=O)c4ccc(-c5ccoc5)cc43)cc2F)CC1 [Example 297] = < 4.30
• CN1CCN(c2ccc(N/C=C3\C(=O)NC(=O)c4ccc(I)cc43)c(F)n2)CC1 [Example 445] = < 4.30
• COc1coc(CNC=C2C(=O)NC(=O)c3ccc(-n4cccc4)cc32)cc1=O [Example 317] = < 4.30
• O=C1NC(=O)c2ccc(I)cc2/C1=C/Nc1ccc(Cn2ccnc2)cc1 [Example 273] = 4.91

Go through the items and report each one's pIC50.
1. C[C@@H]1CN(c2ccc(N/C=C3\C(=O)NC(=O)c4ccc(-c5ccsc5)cc43)cc2)C[C@H](C)N1 [Example 206]
2. CC(c1ccc(N/C=C2\C(=O)NC(=O)c3ccc(I)cc32)cc1)N1CCCC1 (stereo not shown) [Example 354]
3. CO[C@@H]1CCN(Cc2ccc(N/C=C3\C(=O)NC(=O)c4ccc(I)cc43)cc2)C1 [Example 264]

A)
1. < 4.30
2. 5.30
3. < 4.30

Go through the items and report each one's pIC50.
1. CN1CCN(c2ccc(N/C=C3\C(=O)N(CO)C(=O)c4ccc(Br)cc43)cc2)CC1 [Example 220]
2. CC(=O)Nc1ccc(CN/C=C2\C(=O)NC(=O)c3ccc(-c4ccsc4)cc32)cc1O [Example 145]
3. O=C1NC(=O)c2ccc(Br)cc2/C1=C/NCc1ccc(O)cc1 [Example 62]

A)
1. < 4.30
2. 5.21
3. 5.35
